The measurements presented in this section are drawn from PubChem BioAssay (NCI).

System: COLO 205 colon
assay.text: NCI-60 one-dose screen, 48 h
test.conditions: 10 µM
Experimental: Cells are grown in 96 well plates and exposed to the test compound for 48 hours. Compounds are tested at a single concentration, which is 10^-5 M for most compounds. The reported endpoint is percent growth (GI% or GIPRCNT), where numbers from 0 - 100% represent growth inhibition, and numbers from -100% - 0 represent cell death. For example, a value of 40 represents 60% growth inhibition. A value of 0 means no net growth occurred over the course of the experiment. […]
Compounds without any hit were thinned out: in the full panel of roughly 83,000, 20% have a hit. Activity calls are given as the source filed them. How the source made its calls: active means growth percent below 10; inactive means the rest.
Labels: 1 for active, 0 for inactive

compound=C/C(=N\N=C\c1ccc(Cl)c([N+](=O)[O-])c1)c1ccc2c(c1)Nc1ccccc1S2 system="COLO 205 colon" assigned_label=0
compound="CCOC(=O)C1=C(N)N(c2ccccc2)C2=C(C(=O)CC(C)(C)C2)C1c1ccc(Cl)cc1 (centres undefined)" system="COLO 205 colon" assigned_label=1
compound=Cc1cccc(-c2nc(Nc3ccccc3C(=O)O)c3ccccc3n2)c1 system="COLO 205 colon" assigned_label=0
compound=Cc1ccc2nc(COc3ccc(C(=O)NNC(=S)NCCc4ccccc4)cc3)[nH]c2c1 system="COLO 205 colon" assigned_label=0
compound=CCN1CCN(c2ccc(NC(=O)Nc3ccc(-c4cc(C(=O)NC)c5ncccc5n4)cc3)cc2C(F)(F)F)CC1 system="COLO 205 colon" assigned_label=1
compound=COc1ccc(NC(=O)Cn2c(/C=C/c3ccc(N(C)C)cc3)nc3ccccc3c2=O)cc1 system="COLO 205 colon" assigned_label=0
compound=O=S(=O)(c1ccc(Cl)cc1)c1nc(-c2ccccc2)oc1S(=O)(=O)c1ccc(Cl)cc1 system="COLO 205 colon" assigned_label=0
compound=Cc1ccc(S(=O)(=O)c2nc(-c3ccccc3)oc2S(=O)(=O)CC(=O)N2CCCC2)cc1 system="COLO 205 colon" assigned_label=1
compound=Cc1ccc(/C(N)=N/c2sc(-c3ccccc3)nc2-c2ccccc2)cc1 system="COLO 205 colon" assigned_label=0

====

Tested on: EKVX NSCLC
assay.text: NCI-60 one-dose screen, 48 h (100 = growth as untreated, 0 = no growth, -100 = all killed)
test.conditions: 10 µM
The panel holds about 83,000 compounds, 20% with a hit somewhere; the sample as a whole holds those more often.
Given measured growth, output Fulfilled if it is greater than or equal to 50% and Not fulfilled if not.

compound=O=C(CN1CCN(c2ncnc3c2cnn3-c2ccccc2)CC1)Nc1nncs1 system="EKVX NSCLC" assigned_label="Not fulfilled"
compound=CN1C(=O)/C(=C/c2nccs2)SC1=S system="EKVX NSCLC" assigned_label=Fulfilled
compound=O=C(Cn1cc(CSc2nnc3oc4ccccc4n23)nn1)Nc1ccc(Br)cc1 system="EKVX NSCLC" assigned_label=Fulfilled
compound=O=C(NO)c1ccc(-c2nc3ccc4[nH]ncc4c3c3c2CCCC3)cc1 system="EKVX NSCLC" assigned_label="Not fulfilled"
compound=Cc1nn(-c2ccccc2)c2ncn(CC(=O)N/N=C/c3c[nH]c4ccccc34)c(=O)c12 system="EKVX NSCLC" assigned_label=Fulfilled
compound=O=C(Nc1ccc(I)cc1)Nc1nc2ccc([N+](=O)[O-])cc2s1 system="EKVX NSCLC" assigned_label="Not fulfilled"
compound=O=S(=O)(c1ccc(Cl)cc1)c1nc(-c2ccccc2)oc1S(=O)(=O)c1ccc(Cl)cc1 system="EKVX NSCLC" assigned_label=Fulfilled
compound="COc1cc2c(c(OC)c1OC)C(=O)CC(c1cccc(NC(=O)c3cccc(N)c3)c1)O2 (stereo not drawn)" system="EKVX NSCLC" assigned_label=Fulfilled
compound="O=C(Cc1ccc2c(c1)CN(C1CCC(=O)NC1=O)C2=O)NCc1cccc2ccccc12 (stereo not drawn)" system="EKVX NSCLC" assigned_label="Not fulfilled"
compound=COc1cnc2c(c1)C(=O)c1c-2n(CCCNCCO)c(=O)c2cc(OC)c(OC)cc12 system="EKVX NSCLC" assigned_label=Fulfilled
compound=CCOP(=O)(OCC)O[C@H]1CC[C@]2(C)[C@H]3CC[C@@H]4[C@@H]([C@](C)(O)CCC=C(C)C)CC[C@@]4(C)[C@]3(C)CC[C@H]2C1(C)C system="EKVX NSCLC" assigned_label="Not fulfilled"
compound=CCN1CCN(c2ccc(NC(=O)Nc3ccc4c(c3F)CCN4c3ccnc(C(=O)NC)c3)cc2C(F)(F)F)CC1 system="EKVX NSCLC" assigned_label="Not fulfilled"
compound=CN1CCO/C1=C(/NC(=O)c1ccc(Cl)cc1)[P+](c1ccccc1)(c1ccccc1)c1ccccc1 system="EKVX NSCLC" assigned_label=Fulfilled
compound=CC(C)NC(=O)c1cc(-c2ccc(NC(=O)Nc3ccc(N4CCN(C)CC4)c(C(F)(F)F)c3)cc2)nc2cccnc12 system="EKVX NSCLC" assigned_label="Not fulfilled"
compound=Nc1nc(Nc2ccc(Cl)cc2)n(Cc2cccc(Br)c2)n1 system="EKVX NSCLC" assigned_label="Not fulfilled"
compound=O=C(Nc1cccc(-c2cn(-c3ccc4oc(=O)ccc4c3)nn2)c1)Nc1cc(C(F)(F)F)cc(C(F)(F)F)c1 system="EKVX NSCLC" assigned_label="Not fulfilled"
compound=Cc1ccc2nc3c(nc2c1)c1cc(I)ccc1n3CCN(C)C system="EKVX NSCLC" assigned_label="Not fulfilled"
compound=O/N=C(\CSc1nnc(-c2c[nH]c3ccccc23)n1-c1ccccc1)c1ccc(Br)cc1 system="EKVX NSCLC" assigned_label="Not fulfilled"
compound=CCCn1c(=O)c2[nH]c(-c3ccc(OCc4nc5ccc(C(F)(F)F)cc5[nH]4)cc3)nc2n(CCC)c1=O system="EKVX NSCLC" assigned_label=Fulfilled
compound=O=C1c2ccccc2C(=O)c2c1c(C(=O)c1ccc(Cl)cc1)n1c2ccc2c3ccccc3ccc21 system="EKVX NSCLC" assigned_label=Fulfilled
compound=CCOC(=O)c1sc(N/N=C(\C)c2ccc3c(c2)Nc2ccccc2S3)nc1C system="EKVX NSCLC" assigned_label="Not fulfilled"
compound=Cc1ccc2nc(-c3ccc(-c4nnc(SCC(=O)Nc5ccc(Cl)cc5)o4)cc3)[nH]c2c1 system="EKVX NSCLC" assigned_label=Fulfilled
compound=Nc1nnc(-c2c[nH]c3ccc(F)cc23)c(-c2c[nH]c3ncccc23)n1 system="EKVX NSCLC" assigned_label=Fulfilled
compound=COC(=O)c1c(C(=O)OC)c2n(c1C)[C@@H]([C@@H](C)[C@H]1CC[C@H]3[C@@H]4CCC5=CC(=O)CC[C@]5(C)[C@H]4CC[C@]13C)SC2 system="EKVX NSCLC" assigned_label="Not fulfilled"
compound=COc1ccc(-c2ccc(/C=N/NC(=O)c3[nH]c4ccc(Br)cc4c3-c3ccccc3)s2)cc1 system="EKVX NSCLC" assigned_label=Fulfilled
compound="O=C(c1ccc(O)cc1)C1[C@H](c2ccccc2Br)[C@@H](c2ccccc2)NC12C(=O)Nc1ccc(Cl)cc12 (stereo partly drawn)" system="EKVX NSCLC" assigned_label="Not fulfilled"
compound=O=C1NC(=NC23CC4CC(CC(C4)C2)C3)N/C1=C\c1ccc2ncsc2c1 system="EKVX NSCLC" assigned_label="Not fulfilled"

====

System: OVCAR-5 ovarian
assay.text: NCI-60 one-dose screen, 48 h (100 = growth as untreated, 0 = no growth, -100 = all killed)
test.conditions: 10 µM
This is part of a sample that, as a whole, favours compounds with a hit. Of some 83,000 tested, about 20% had one in any assay.
This listing pairs compounds with measured growth.
experimental.endpoint: growth (%)

compound="CCOC(=O)C1=C(N)N(c2ccc(Cl)cc2)C2=C(C(=O)CC(C)(C)C2)C1c1ccc(N2CCOCC2)cc1 (stereo not given)" system="OVCAR-5 ovarian" experimental_endpoint=growth experimental_result=106
compound=Cc1cccc2cc(-c3cc(-c4ccccc4)nc(=S)[nH]3)c(Cl)nc12 system="OVCAR-5 ovarian" experimental_endpoint=growth experimental_result=108
compound=Cc1ccc(C(=O)Nc2ccc(-n3c(C)nc4c(cnn4-c4ccccc4)c3=O)cc2)cc1 system="OVCAR-5 ovarian" experimental_endpoint=growth experimental_result=86
compound=COc1cc(-c2nc3cc(Cl)c(Cl)cc3[nH]2)ccc1OCc1nnc(-c2ccc(Br)cc2)o1 system="OVCAR-5 ovarian" experimental_endpoint=growth experimental_result=39.6
compound=COc1ccc2[nH]c(=O)c(CSc3cccc(N)c3)cc2c1 system="OVCAR-5 ovarian" experimental_endpoint=growth experimental_result=91.6
compound=Cc1noc2c(Cc3ccc([N+](=O)[O-])cc3)nn(CC(=O)N/N=C/c3ccc(Br)cc3)c(=O)c12 system="OVCAR-5 ovarian" experimental_endpoint=growth experimental_result=96.9
compound=COc1ccc(/C=C/C(=O)c2ccc(N3CCN(C)CC3)cc2)c(C(F)(F)F)c1 system="OVCAR-5 ovarian" experimental_endpoint=growth experimental_result=86.4
compound=O=c1cc(-c2ccccc2)oc2cc(OCCCNCc3ccccc3)cc(O)c12 system="OVCAR-5 ovarian" experimental_endpoint=growth experimental_result=75.5
compound=CN1CCN(c2ccc(C(=O)/C=C/c3ccc(OC(F)F)cc3)cc2)CC1 system="OVCAR-5 ovarian" experimental_endpoint=growth experimental_result=80.3
compound="CC1(c2ccccc2)NC(=O)N(CC(=O)Nc2ccc(C(=O)/C=C/c3ccccc3)cc2)C1=O (stereo not given)" system="OVCAR-5 ovarian" experimental_endpoint=growth experimental_result=89.2
